Cited source for all entries: the supplement of paper PMC9262897

Recorded growth values for a group of molecules are listed next.
Tested on: E. coli TESEC Mtb Alr
Protocol details: growth (OD600 after 10 h); higher = more growth (less inhibition)
Experimental parameters: arabinose 100000 nM; compound 0.1 mM; raw OD600 reference: median of DMSO wells 0.201, cell-free background 0.041
Counter-ions that a name gives are not always drawn.
Give the value as a plain number.

Illustrative cases are given below, each with its answer.
{"Molecule": "CC/C(=C(/CC)c1ccc(O)cc1)c1ccc(O)cc1", "Observed measurement": 0.0436}
{"Molecule": "O=c1[nH]c(=O)n(C2CCCO2)cc1F (stereo not drawn)", "Observed measurement": 0.208}
{"Molecule": "CC(=O)N(O)CCCCCNC(=O)CCC(=O)N(O)CCCCCNC(=O)CCC(=O)N(O)CCCCCN [Deferoxamine mesylate]", "Observed measurement": 0.0487}
{"Molecule": "CC(=O)OCC(=O)[C@@]12N=C(C)O[C@@H]1C[C@H]1[C@@H]3CCC4=CC(=O)C=C[C@]4(C)[C@H]3[C@@H](O)C[C@@]12C", "Observed measurement": 0.193}
{"Molecule": "NC(=O)c1cnccn1 [Pyrazinamide]", "Observed measurement": 0.208}

Task: Provide one value: measured growth of CC(C)(C)NCC(O)c1ccc(O)c(CO)c1 (stereo not drawn)
Result: 0.192

Task: Provide one value: measured growth of `COc1cc(NS(=O)(=O)c2ccc(N)cc2)nc(OC)n1`
Result: 0.213

Task: Provide one value: measured growth of `C=C1/C(=C\C=C2/CCC[C@]3(C)[C@@H]([C@H](C)CCCC(C)C)CC[C@@H]23)C[C@@H](O)C[C@@H]1O`
Result: 0.143

Task: Provide one value: measured growth of N=C(N)c1ccc(OCCCCCOc2ccc(C(=N)N)cc2)cc1 [Pentamidine isethionate]
Result: 0.0903

Task: Provide one value: measured growth of CCc1nn(CCCN2CCN(c3cccc(Cl)c3)CC2)c(=O)n1CCOc1ccccc1 [Nefazodone HCl]
Result: 0.0431

Task: Provide one value: measured growth of CCOC(=O)C1=C(COCCN)NC(C)=C(C(=O)OC)C1c1ccccc1Cl (stereo not drawn)
Result: 0.179

Task: Provide one value: measured growth of `Clc1ccc(Nc2nnc(Cc3ccncc3)c3ccccc23)cc1`
Result: 0.0763

Task: Provide one value: measured growth of `COc1ccc(C(=O)c2ccccc2O)c(O)c1`
Result: 0.107

Task: Provide one value: measured growth of Cc1cc(/C=C/c2ccc3cc(N(C)C)ccc3[n+]2C)c(C)n1-c1ccccc1 [Pyrvinium pamoate]
Result: 0.0747

Task: Provide one value: measured growth of NCCc1c[nH]cn1 [Histamine dihydrochloride]
Result: 0.192

Task: Provide one value: measured growth of CN(C)CCc1c[nH]c2ccc(Cn3cncn3)cc12 [Rizatriptan benzoate]
Result: 0.198

Task: Provide one value: measured growth of CCOc1ccccc1OCC1CNCCO1 (stereo not drawn) [Viloxazine hydrochloride]
Result: 0.193

Task: Provide one value: measured growth of `Cc1c(N(C)C)c(=O)n(-c2ccccc2)n1C`
Result: 0.225
